test: molar heat capacity at constant pressure; conditions: 343.15 K; 101.33 kPa; Liquid; DSC
observation-type: molar heat capacity at constant pressure (J/K/mol)

Below, each entry is followed by its recorded molar heat capacity at constant pressure result.
INSERT INTO assay_data (compound, observed_result) VALUES
  ('CCCCCCCCCCCC(=O)OC [methyl dodecanoate]', 468.4),
  ('CCCCCCCCCC(=O)OC [methyl decanoate]', 401.9);

a = CCCCCCCCCCC(=O)OC [methyl undecanoate]
b = CCCCCC(=O)OC [methyl hexanoate]
Q) Given the listed records, identify the one among a and b with higher molar heat capacity at constant pressure. Your answer should be the label attached to the chosen record.
A) a

----------
assay: molar heat capacity at constant pressure; conditions: 323.15 K; 101.33 kPa; Liquid; DSC
observation-type: molar heat capacity at constant pressure (J/K/mol)

Below, each entry is followed by its recorded molar heat capacity at constant pressure result.
INSERT INTO measurements (compound, observed_result) VALUES
  ('CCCCCCC(=O)OC [methyl heptanoate]', 296.2),
  ('CCCCCCCCCCCC(=O)OC [methyl dodecanoate]', 457.4),
  ('CCCCCCCCC(=O)OC [methyl nonanoate]', 358.6);

A = CCCCCCCCCCC(=O)OC [methyl undecanoate]
B = CCCCCC(=O)OC [methyl hexanoate]
Q) Which gives the smaller molar heat capacity at constant pressure number: A or B ? Your answer should be the label attached to the chosen record.
A) B

----------
conditions: 373.15 K; 101.33 kPa; Liquid; Laser flash apparatus
observation-type: thermal diffusivity (m2/s)

INSERT INTO results (molecule, observed_result) VALUES
  ('CCCCCCCCCC(=O)OC [methyl decanoate]', '7.28e-08'),
  ('CCCCCCCCC(=O)OC [methyl nonanoate]', '7.19e-08'),
  ('CCCCCCCCCCC(=O)OC [methyl undecanoate]', '7.38e-08'),
  ('CCCCCCCC(=O)OC [methyl octanoate]', '7.11e-08'),
  ('CCCCCCCCCCCC(=O)OC [methyl dodecanoate]', '7.43e-08');

----------
experiment: molar heat capacity at constant pressure; settings: 313.15 K; 101.33 kPa; Liquid; DSC
observation-type: molar heat capacity at constant pressure (J/K/mol)

INSERT INTO assay_data (compound, observation_type, unit_name, observed_result) VALUES
  ('CCCCCCC(=O)OC [methyl heptanoate]', 'molar heat capacity at constant pressure', 'J/K/mol', 292.5),
  ('CCCCCCCC(=O)OC [methyl octanoate]', 'molar heat capacity at constant pressure', 'J/K/mol', 320.5),
  ('CCCCCCCCC(=O)OC [methyl nonanoate]', 'molar heat capacity at constant pressure', 'J/K/mol', 354.7),
  ('CCCCCCCCCCC(=O)OC [methyl undecanoate]', 'molar heat capacity at constant pressure', 'J/K/mol', 415.9);

----------
experiment: molar heat capacity at constant pressure; conditions: 343.15 K; 101.33 kPa; Liquid; DSC
observation-type: molar heat capacity at constant pressure (J/K/mol)

INSERT INTO results (molecule, observation_type, observed_result) VALUES
  ('CCCCCCCC(=O)OC [methyl octanoate]', 'molar heat capacity at constant pressure', 333.2),
  ('CCCCCCC(=O)OC [methyl heptanoate]', 'molar heat capacity at constant pressure', 304.3),
  ('CCCCCCCCC(=O)OC [methyl nonanoate]', 'molar heat capacity at constant pressure', 367.9);

src = the NIST ThermoML archive (doi:10.1016/j.jct.2018.09.024)
